test system: Human papillomavirus type 1a protein E7 (residues 44-93); experiment: small molecules binding HPV E7 44-93 – biochemical, small-molecule microarray, residues 44-93, 635 nm fluorescence, primary screen (AID 1108); settings: fluorescence 635 nm, higher = more signal;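 note: E7 fragment applied at 1 µg/mL in TBST for 1 h at 4 C; score combines spot fluorescence with its signal to noise ratio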
Threshold check on composite z-score: at or above 1 gives Y, strictly below gives N.

Quick check: does C=CCC(OC(C)=O)[C@@H]1[C@@H](N(Cc2cc3ccccc3o2)C(=O)Cc2ccc(OC)cc2)c2cc(OCCCO)ccc2N1C(=O)c1ccc2ccccc2n1 (some centres undefined) have composite z-score greater than or equal to 1?
N

Given the entry CC1CC/C=C\[C@H]2OC34C=CCN(Cn5nnc6ccccc65)C(=O)[C@H]3N(CCCCCCO)C(=O)[C@@H]4C2C(=O)O1 (some centres undefined) , answer whether its composite z-score meets or surpasses 1.
N

Quick check: does `COc1ccc(C(=O)Nc2ccc3c(c2)[C@@]2(O[C@H](CCO)[C@@H]([Si](C)(C)c4ccc(OC)cc4)[C@@H]2C)C(=O)N3Cc2ccccc2)cc1` have composite z-score greater than or equal to 1?
Y

Answer whether composite z-score of `CN(C)CCCCNC(=O)[C@H]1C[C@H]2C(=O)N3CCC[C@H]3C(=O)N2[C@H]1c1cccc(OCCO)c1` is greater than or equal to 1.
Y

Evaluate `C=C(CCCC)C(=O)CC[C@H](OC(=O)c1ccccc1-c1ccccc1C(=O)O)c1ccc(OCCO)cc1` : composite z-score at minimum 1?
Y

Textbook exercise: given the entry COc1ccc(C(O)C2C=CC3C(=O)N(c4ccccc4)C(=O)C3N2Nc2ccc([N+](=O)[O-])cc2)c2ccccc12 (centres undefined) , state whether its composite z-score is greater than or equal to 1.
Y

Is it the case that CN1C(=O)C2C(C1=O)C1C=C(CCCO)C2C(C2CC2)N1Cc1cccc(OC(F)(F)F)c1 (centres undefined) has composite z-score reaching or exceeding 1?
Y

hey, is composite z-score for this one >= 1? `O=C1O[C@@H](c2ccccc2)[C@@H](c2ccccc2)N2[C@@H](c3ccc(OCCO)cc3)[C@]3(C(=O)Nc4ccc(C#CCCO)cc43)[C@@H](C(=O)O)[C@H]12`
Y

Reported composite z-score at or above 1? `COC(=O)C(CC#Cc1ccc2c(c1)[C@]1(C(=O)N2)[C@H](c2ccccc2OCCO)N2[C@H](c3ccccc3)[C@H](c3ccccc3)OC(=O)[C@H]2[C@@H]1C(=O)N1CCc2cc(OC)c(OC)cc2C1)C(=O)OC`
Y

Check if composite z-score >= 1 (inclusive). Item: CCCc1cc2c(n1CCc1ccc(Cl)cc1)C(C)C1CN(C(=O)c3ccccc3)C(C)(C(=O)OC)C21 (centres undefined)
N

Threshold query (composite z-score >= 1) on `O=C1O[C@@H](c2ccccc2)[C@@H](c2ccccc2)N2[C@@H](c3ccccc3OCCO)[C@]3(C(=O)Nc4ccc(C#CCCO)cc43)[C@@H](C(=O)NC[C@H](O)c3ccccc3)[C@H]12`
Y

Hi, just wondering whether `CN(C)CCCC[C@@H]1NC(=O)[C@@H]2C[C@H](C(=O)NCCCCCCNC(=O)CS)[C@H](c3ccc(O)cc3)N2C1=O` shows composite z-score of 1 or higher.
Y

Is reported composite z-score greater than or equal to 1 here: `CCOC(=O)C[C@H]1[C@H](OC(=O)c2ccccc2-c2ccccc2)[C@@H](NC(=O)c2ccc3ccccc3c2)c2cc(OCCCO)ccc2N1C(=O)Cc1ccc(OC)cc1`
N

Does composite z-score meet or surpass 1 for `[N-]=[N+]=Nc1ccccc1C[C@]1(C(=O)N2CCOCC2)N=C(c2ccc(OCCCO)cc2)O[C@H]1c1ccccc1N=[N+]=[N-]` ?
Y
